Items are presented alongside their recorded IC10, HEK293, ERα.
Test system: HEK293T (ERα)
Settings: cytotoxicity, HEK293 (ERα assay cells)
Numeric only. Scale: µM

Oc1ccc(C(c2ccc(O)cc2)(C(F)(F)F)C(F)(F)F)cc1: 9.47
CC(c1ccccc1)(c1ccc(O)cc1)c1ccc(O)cc1: 11.8

Prompt line: State the recorded IC10, HEK293, ERα for this entry: CC(C)(c1cc(Cl)c(O)c(Cl)c1)c1cc(Cl)c(O)c(Cl)c1
Response line: 15.1

Prompt line: What do you have for Oc1ccc(Sc2ccc(O)cc2)cc1 ?
Response line: 24.3

Prompt line: Param item: CCC(C)(c1ccc(O)cc1)c1ccc(O)cc1
Response line: 20.9

Prompt line: Input CC(c1ccc(O)cc1)c1ccc(O)cc1
Response line: 67.4

Prompt line: And Oc1ccc(C2(c3ccc(O)cc3)CCCCC2)cc1 [BPZ, 1,1'-Bis(4-hydroxyphenyl)cyclohexane] ?
Response line: 6.64

Prompt line: Same question, COC(=O)C(c1ccc(O)cc1)c1ccc(O)cc1 [Bz, Methyl bis(4-hydroxyphenyl)acetate] this time
Response line: 1010
